Quick list: kon per entry.
- Target under test: T1, recombinant human full-length TDP-43 (TAR DNA-binding protein 43), soluble (human, UniProt Q13148 1-414)
- T1 construct: Used on Luminex beads, coated on ELISA plates, and immobilized or injected in SPR; also called FL TDP-43; TDP-43 protein
- T1 sequence (Q13148 whole entry): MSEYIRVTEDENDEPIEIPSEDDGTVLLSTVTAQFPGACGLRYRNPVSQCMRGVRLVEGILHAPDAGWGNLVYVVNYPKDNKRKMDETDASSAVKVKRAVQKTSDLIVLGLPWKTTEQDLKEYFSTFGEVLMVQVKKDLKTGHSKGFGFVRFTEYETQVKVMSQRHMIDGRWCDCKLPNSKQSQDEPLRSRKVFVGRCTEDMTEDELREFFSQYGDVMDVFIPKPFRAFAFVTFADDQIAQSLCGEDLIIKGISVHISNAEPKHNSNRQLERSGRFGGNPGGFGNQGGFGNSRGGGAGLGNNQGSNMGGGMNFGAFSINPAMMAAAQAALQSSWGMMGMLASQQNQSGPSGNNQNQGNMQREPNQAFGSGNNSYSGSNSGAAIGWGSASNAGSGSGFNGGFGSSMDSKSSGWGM
- Assay remarks: SPR, immobilized soluble TDP-43
Reported metric: kon

[[record]]
binder = "ACI-7069-636E5-Ab1 (antibody, mouse IgG2b, V domains shown, Mouse IgG2b, lambda, from hybridoma; also called 636E5B8) VH: EVHLVESGGDLVMPGGSLKLSCAASGFTFSNYGMSWVRQTPDKRLEWVATISSGGKYINYLDSLKGRFTISRDNAKNTLYLQMSSLKSEDTAMYYCAKDYGSGWAWFAYWGQGTLVTVSA VL: QLVLTQSSSASFSLGASAKLTCTLSSQHSTYTIEWYQQQPLKPPKYVMELKKDGSHSTGDGIPDRFSGSSSGADRYLSISNIQPEDEAIYICGVGDTIKEQFVYVFGGGTKVTVL"
value_observed = "15600 M⁻¹ s⁻¹"

[[record]]
binder = "ACI-7071-809F12-Ab1 (antibody, mouse IgG2b, V domains shown, Mouse IgG2b, kappa, from hybridoma; also called 809F12D8) VH: QVQLKESGPGLVAPSQSLSITCTVSGFSLNRNGVQWVRQPPGKGLEWLGVIWPGGSTNCNSALMSRLSISKDNSKSQVFLKMNSLHTDDTGIYYCARVGGNYVWDYNNYAWGQGTLVTVSA VL: DVLMTQTPLSLPVSLGDQASISCRSSQNIVHSIGNTYLEWYLQKPGQSPKLLIYKVSNRFSGVPDRFSGSGSGTDFTLKISRVEAEDLGVYYCFQGSHVPYTFGGGTKLEIR"
value_observed = "99400 M⁻¹ s⁻¹"

[[record]]
binder = "ACI-7069-642D12-Ab1 (antibody, mouse IgG2b, V domains shown, Mouse IgG2b, kappa, from hybridoma; also called 642D12B4) VH: EVQLQQSGAELVKPGASVRLSCTASGFNIKDPYMHWVRQRPKQGLEWIGRIDPADGNTKYDPKFQGKATLTADTSSNVAYLHLSSLTSEDTAVYYCARFYGSSHWYFDVWGAGTTVTVSS VL: DIKMTQSPSSMYASLGERVTITCKASQDIKRYLSWYQQKPWKSPKILIYYATSLADGVPSRFSGTGSGQDYSLTISSLESDDVATYYCLQQGESPYTFGGGTKLEIK"
value_observed = "159000 M⁻¹ s⁻¹"

